# System: Gram positive anaerobic and facultative anaerobic pathogens
# measurement notes: microbe, parasite or virus in culture
# Format: cell-based
# stated conditions: Clostridium septicum, ATCC12464
Can you tell me MIC for the items I'm about to list?
Answers are plain numbers, in µg/mL.

Recorded results for 2 compounds are shown here.
# compound, endpoint result
rows = [
    ("CO/N=C1\\CN(c2nc3c(cc2F)c(=O)c(C(=O)O)cn3C2CC2)CC1CN (racemic)", 0.06),
    ("N[C@@H]1[C@H]2CN(c3nc4c(cc3F)c(=O)c(C(=O)O)cn4-c3ccc(F)cc3F)C[C@@H]12", 0.125),
]

Now consider the entry below.
Param item = C[C@@H]1CN(c2c(F)c(N)c3c(=O)c(C(=O)O)cn(C4CC4)c3c2F)C[C@H](C)N1 ; retrieve measured MIC.
0.125

---

Can you tell me MIC Range for the items I'm about to list?
# Tested on: Hafnia alvei
# measurement notes: MIC by agar dilution (NCCLS M7-A4), 288 enteropathogenic isolates, eight quinolones
# Assay type: cell-based
# stated conditions: Hafnia alvei (n = 32)

Recorded results for 5 molecules are shown here.
# molecule, MIC Range
rows = [
    ("Cc1c(F)c(N2CCNC(C)C2)cc2c1c(=O)c(C(=O)O)cn2C1CC1 (stereo not shown)", "≤0.015 to 0.06 µg/mL"),
    ("N[C@@H]1[C@H]2CN(c3nc4c(cc3F)c(=O)c(C(=O)O)cn4-c3ccc(F)cc3F)C[C@@H]12", "0.03 to 0.12 µg/mL"),
    ("CCn1cc(C(=O)O)c(=O)c2ccc(C)nc21", "1 to 2 µg/mL"),
    ("C[C@H]1COc2c(N3CCN(C)CC3)c(F)cc3c(=O)c(C(=O)O)cn1c23", "≤0.015 to 0.03 µg/mL"),
    ("CC1COc2c(N3CCN(C)CC3)c(F)cc3c(=O)c(C(=O)O)cn1c23 (stereo not shown)", "0.03 µg/mL"),
]

Could you tell me MIC Range for each of these molecules? They are listed below.
1. CO/N=C1\CN(c2nc3c(cc2F)c(=O)c(C(=O)O)cn3C2CC2)CC1CN (racemic)
2. CCn1cc(C(=O)O)c(=O)c2cc(F)c(N3CCNCC3)cc21

≤0.015 to 0.06 µg/mL
≤0.015 to 0.03 µg/mL

---

# System: Gram negative anaerobic pathogens and facultative anaerobic pathogens
# measurement notes: MIC by agar dilution, Brucella HK agar with 5% laked sheep blood, anaerobic reference strains
# Format: cell-based
# stated conditions: Bacteroides fragilis, Bacteroides fragilis GAI10150; read-out: MIC
parameter measured: MIC (µg/mL)
Give bare numbers, in µg/mL.

Recorded results for 3 molecules are shown here.
# molecule, target or system, MIC (µg/mL)
records = [
    ("N[C@@H]1[C@H]2CN(c3nc4c(cc3F)c(=O)c(C(=O)O)cn4-c3ccc(F)cc3F)C[C@@H]12", "Gram negative anaerobic pathogens and facultative anaerobic pathogens", 0.25),
    ("CO/N=C1\\CN(c2nc3c(cc2F)c(=O)c(C(=O)O)cn3C2CC2)CC1CN (racemic)", "Gram negative anaerobic pathogens and facultative anaerobic pathogens", 0.5),
    ("C[C@@H](O)[C@H]1C(=O)N2C(C(=O)O)=C(SCCN=CN)C[C@H]12", "Gram negative anaerobic pathogens and facultative anaerobic pathogens", 2),
]

Now consider the entry below.
Which MIC is reported with Gram negative anaerobic pathogens and facultative anaerobic pathogens for this entry: C[C@@H]1CN(c2c(F)c(N)c3c(=O)c(C(=O)O)cn(C4CC4)c3c2F)C[C@H](C)N1 ?
1

---

Can you tell me MIC for the items I'm about to list?
# Tested on: Campylobacter jejuni
# measurement notes: MIC by agar dilution (NCCLS M7-A4), 288 enteropathogenic isolates, gemifloxacin and 15 other antimicrobials
# stated conditions: Campylobacter jejuni, read-out: MIC (mg/L) 90%
Returns: string containing the number followed by the unit.

Recorded results for 2 compounds are shown here.
# query smiles, MIC
data = [
    ("CC[C@H]1OC(=O)[C@H](C)[C@@H](O[C@H]2C[C@@](C)(OC)[C@@H](O)[C@H](C)O2)[C@H](C)[C@@H](O[C@@H]2O[C@H](C)C[C@H](N(C)C)[C@H]2O)[C@](C)(O)C[C@@H](C)C(=O)[C@H](C)[C@@H](O)[C@]1(C)O", "1 mg/L"),
    ("CC1(C)S[C@@H]2[C@H](NC(=O)[C@H](N)c3ccccc3)C(=O)N2[C@H]1C(=O)O", "32 mg/L"),
]

Now consider the entry below.
Param item = C[C@H]1c2cccc(O)c2C(=O)C2=C(O)[C@]3(O)C(=O)C(C(N)=O)=C(O)[C@@H](N(C)C)[C@@H]3[C@@H](O)[C@@H]21 ; retrieve measured MIC.
32 mg/L

---

# Test system: Staphylococcus aureus
# measurement notes: MIC by NCCLS reference broth microdilution, 450 respiratory tract pathogens
# Type: cell-based
# stated conditions: β-lactamase positive (n = 20)
parameter measured: MIC90
Returns: string containing the number followed by the unit.

# molecule, target or system, MIC90
records = [
    ("NC1CCN(c2c(F)cc3c(=O)c(C(=O)O)cn(C4CC4)c3c2Cl)C1 (stereo not shown)", "Staphylococcus aureus", "0.25 µg/mL"),
    ("CO/N=C1\\CN(c2nc3c(cc2F)c(=O)c(C(=O)O)cn3C2CC2)CC1CN (racemic)", "Staphylococcus aureus", "0.123 µg/mL"),
    ("C[C@@H]1CN(c2c(F)c(N)c3c(=O)c(C(=O)O)cn(C4CC4)c3c2F)C[C@H](C)N1", "Staphylococcus aureus", "0.5 µg/mL"),
    ("N[C@@H]1[C@H]2CN(c3nc4c(cc3F)c(=O)c(C(=O)O)cn4-c3ccc(F)cc3F)C[C@@H]12", "Staphylococcus aureus", "0.25 µg/mL"),
]

Could you tell me MIC90 for each of these molecules? They are listed below.
1. CO/N=C(\C(=O)N[C@@H]1C(=O)N2C(C(=O)O)=C(COC(N)=O)CS[C@H]12)c1ccco1
2. COc1c(N2C[C@@H]3CCCN[C@@H]3C2)c(F)cc2c(=O)c(C(=O)O)cn(C3CC3)c12

1: 0.25 µg/mL; 2: 0.5 µg/mL

Param item = C[C@H]1COc2c(N3CCN(C)CC3)c(F)cc3c(=O)c(C(=O)O)cn1c23 ; retrieve measured MIC90.
2 µg/mL

---

Can you tell me MIC90 for the items I'm about to list?
# Test system: Streptococcus pyogenes
# measurement notes: MIC by NCCLS reference broth microdilution, 450 respiratory tract pathogens
# Format: cell-based
# stated conditions: Streptococcus pyogenes, fully susceptible (n = 20)
Returns: string containing the number followed by the unit.

Recorded results for 5 compounds are shown here.
# compound, MIC90
records = [
    ("CO/N=C1\\CN(c2nc3c(cc2F)c(=O)c(C(=O)O)cn3C2CC2)CC1CN (racemic) [Gemifloxacin]", "0.03 µg/mL"),
    ("C[C@@H]1CN(c2c(F)c(N)c3c(=O)c(C(=O)O)cn(C4CC4)c3c2F)C[C@H](C)N1 [Sparfloxacin, sparfloxacin]", "1 µg/mL"),
    ("NC1CCN(c2c(F)cc3c(=O)c(C(=O)O)cn(C4CC4)c3c2Cl)C1 (stereo not drawn) [Clinafloxacin, clinafloxacin]", "0.06 µg/mL"),
    ("O=C(O)c1cn(C2CC2)c2cc(N3CCNCC3)c(F)cc2c1=O [Ciprofloxacin, ciprofloxacin]", "0.5 µg/mL"),
    ("N[C@@H]1[C@H]2CN(c3nc4c(cc3F)c(=O)c(C(=O)O)cn4-c3ccc(F)cc3F)C[C@@H]12 [Trovafloxacin, trovafloxacin]", "0.25 µg/mL"),
]

Param item = CO/N=C(\C(=O)N[C@@H]1C(=O)N2C(C(=O)O)=C(COC(N)=O)CS[C@H]12)c1ccco1 [Cefuroxime, cefuroxime] ; retrieve measured MIC90.
0.015 µg/mL

---

Can you tell me MIC90 for the items I'm about to list?
# System: Haemophilus influenzae
# measurement notes: MIC by NCCLS reference broth microdilution, 450 respiratory tract pathogens
# Format: cell-based
# stated conditions: Haemophilus influenzae, β-lactamase positive (n = 20); read-out: MIC90
Answers are plain numbers, in µg/mL.

Recorded results for 2 compounds are shown here.
# compound, target or system, unit spec, MIC90
data = [
    ("COc1c(N2C[C@@H]3CCCN[C@@H]3C2)c(F)cc2c(=O)c(C(=O)O)cn(C3CC3)c12", "Haemophilus influenzae", "µg/mL", 0.015),
    ("CO/N=C1\\CN(c2nc3c(cc2F)c(=O)c(C(=O)O)cn3C2CC2)CC1CN (racemic)", "Haemophilus influenzae", "µg/mL", 0.015),
]

Now consider the entry below.
Param item = C[C@H]1COc2c(N3CCN(C)CC3)c(F)cc3c(=O)c(C(=O)O)cn1c23 ; retrieve measured MIC90.
0.03
